This collection of values is drawn from the supplement of paper PMC9663587.

Measured area over the GR curve accompanies every entry in the list below.
System: MCF10A
assay method text: area over the GR curve, 72 h; higher = more effect;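 note: Dye Drop or Deep Dye Drop imaging of viable cells in 384-well plates (Hoechst nuclei, LIVE/DEAD dye), nine half-log doses, GR normalized to DMSO controls and time-zero plates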
Numbers only here, please. The scale is GR.

CC(=O)Nc1cccc(-n2c(=O)n(C3CC3)c(=O)c3c(Nc4ccc(I)cc4F)n(C)c(=O)c(C)c32)c1 (max 1 µM)    0.527
O=C1NC(=NCc2cccs2)SC1=Cc1ccc2ncccc2c1 [R0-3306] (max 10 µM)    0.115
COc1cccc(OCCCN)c1-c1cc(Nc2cnc(C#N)cn2)n[nH]1    0.301

Nc1cc(C(F)(F)F)c(-c2cc(N3CCOCC3)nc(N3CCOCC3)n2)cn1 [Buparlisib/NVP-BKM120] (max 10 µM) yielded area over the GR curve of 0.249

CCN1CCN(Cc2ccc(Nc3ncc(F)c(-c4cc(F)c5nc(C)n(C(C)C)c5c4)n3)nc2)CC1 (max 10 µM) yielded area over the GR curve of 0.381

CN(C)C/C=C/C(=O)Nc1ccc(O[C@@H]2CCC[C@@H](Nc3ncc(Cl)c(-c4c[nH]c5ccccc45)n3)C2)cc1 [BSJ-01-175] (max 10 µM) yielded area over the GR curve of 0.3

CC1(N)CCN(c2cnc(-c3cccc(Cl)c3Cl)c(N)n2)CC1 [SHP099] (max 10 µM) yielded area over the GR curve of 0.081

CO[C@@H](C)Cn1c(=O)n(C)c2cnc3ccc(-c4cncc(C(C)(C)O)c4)cc3c21 (max 10 µM) yielded area over the GR curve of 0.447
